Tested on: NCI-H522 lung
protocol details: NCI-60 one-dose screen, 48 h (100 = growth as untreated, 0 = no growth, -100 = all killed)
condition summary: 10 µM unless noted
The panel holds about 83,000 compounds, 20% with a hit somewhere; the sample as a whole holds those more often. Active and inactive are the calls of the source. Rule for the calls: active = growth percent below 10; inactive = the rest.
recorded metric: growth

INSERT INTO results (compound, reported_result) VALUES
  ('CCOC(=O)/C(F)=C/C1CC1C1CCCCC1 (stereo not given)', '103% (inactive)'),
  ('C#C[C@]1(O)CC[C@H]2[C@@H]3CC=C4c5sc(C6CC6)nc5CC[C@]4(C)[C@H]3CC[C@@]21C', '81.6% (inactive)'),
  ('CC(C)C(=O)Nc1ccc(-c2nc(-c3cccc(O)c3)c(-c3ccnc(Br)c3)[nH]2)cc1', '48.4% (inactive)'),
  ('O=c1[nH]c2cc(Cl)ccc2n1C1CCN(c2ccc3nnc(Cl)n3n2)CC1', '87.2% (inactive)');

Now look at this entry.
Ask | Name the reported growth value associated with the compound Cc1cc(O)c2c(c1)C(=O)C(c1c(C)cc3c(c1O)C(=O)C=CC3=O)=CC2=O
Reply | -36.9% (active)

* * *

Test system: DU-145 prostate
protocol details: NCI-60 one-dose screen, 48 h (100 = growth as untreated, 0 = no growth, -100 = all killed)
condition summary: 10 µM unless noted
The panel holds about 83,000 compounds, 20% with a hit somewhere; the sample as a whole holds those more often.
recorded metric: growth (%)
Entry rule: numbers only, all in %.

These recorded examples may help you get a feel for the data.
INSERT INTO measurements (molecule, recorded_metric, reported_result) VALUES
  ('COc1ccc2c(ccn2C(=O)N2c3ccccc3Sc3ccccc32)c1', 'growth', 28.2),
  ('Cc1csc(Nc2cccc(Nc3nc(C)cs3)c2)n1', 'growth', 83.8),
  ('COc1cc(OC)c(S(N)(=O)=O)cc1C(=O)/C=C/c1ccccc1', 'growth', 1.92),
  ('O=S(=O)(Nc1ccc(-n2cnc3cc(-c4ccc(O)cc4)ccc32)cc1)C1CC1', 'growth', 95.3),
  ('O=S(=O)(Nc1ccc(I)c(Cl)c1)c1ccc(-c2cnc(C3CC3)o2)cc1', 'growth', 19.5);

Now look at this entry.
Ask | Name the reported growth value associated with the molecule CCN1C(=O)N(CC)C2C1NN=C1SC(c3ccccc3)=CC(=O)N12 (stereo unspecified)
Reply | 26

* * *

System: NCI-H23 lung
protocol details: NCI-60 one-dose screen, 48 h (100 = growth as untreated, 0 = no growth, -100 = all killed)
condition summary: 10 µM unless noted
The panel holds about 83,000 compounds, 20% with a hit somewhere; the sample as a whole holds those more often.
Each entry falls into one class according to its growth; the ranges are class A = under 30%, class B = from 30% up to 90%, class C = 90% and over

Check out these entries, answers already filled in.
INSERT INTO assay_data (compound, class_name) VALUES
  ('CCC(CC)N1C(=O)/C(=c2\sc3n(c2=O)C2C(NN=3)N(CC)C(=O)N2CC)c2ccccc21 (stereo unspecified)', 'class A'),
  ('COc1cc(NC2=C(Cl)C(=O)c3nc(C)ccc3C2=O)cc(OC)c1', 'class A'),
  ('CCNC(=NCCCN(C)C)N/C(N)=N/c1nc2ccccc2s1', 'class C'),
  ('O=c1c2c(O)cccc2oc2c3c(cc(O)c12)O[C@H]1OC=C[C@@H]31', 'class B'),
  ('COc1ccc(-c2nnc(/N=C3/C(=O)Nc4ccc(Br)cc43)o2)cc1', 'class C'),
  ('O=C1[C@H]2Cc3c([nH]c4ccccc34)[C@H](c3ccc(Cl)cc3)N2C(=O)CN1C1CCN(Cc2c(Cl)cccc2Cl)CC1', 'class B'),
  ('COc1cc(O)c2c(c1)[C@H]1O[C@@H]1C[C@H](O)[C@H](O)C(=O)/C=C\C[C@H](C)OC2=O', 'class A'),
  ('Cc1ccc(C2CC(c3ccc(Nc4nc(NCCO)nc(Nc5ccc(Cl)cc5)n4)cc3)=Nc3c(N)nc(N)nc3N2)cc1 (stereo unspecified)', 'class A');

Ask | Entry COc1cc(/C=N/n2cnc3oc(-c4ccccc4)cc3c2=N)cc(CN2CCN(C)CC2)c1O belongs to which category?
Reply | class C

Ask | Entry O=C(CSc1nnc(-c2ccc(Cl)cc2)n1-c1ccccc1)Nc1ccc(F)cc1 belongs to which category?
Reply | class B

Ask | Entry CCC(=O)Nc1cc(Nc2cc(NC3CC3)n3ncc(C#N)c3n2)ccc1C belongs to which category?
Reply | class A

Ask | Entry COc1cc(/C=C/C(=O)c2ccc(N3CCN(C)CC3)cc2)ccc1F belongs to which category?
Reply | class B

Ask | Entry CN(C)C(=O)c1ccccc1-n1cnc2ccccc2c1=O belongs to which category?
Reply | class C

Ask | Entry CS(=O)(=O)c1nccc(-c2c(-c3ccc(F)c(OCc4ccccc4)c3)nc3sccn23)n1 belongs to which category?
Reply | class C

Ask | Entry O=C(NNc1nc2cc(F)c(F)cc2n2cccc12)c1ncccn1 belongs to which category?
Reply | class A

Ask | Entry N#C/C(=C\c1ccc(N2CCCCC2)cc1)C(=O)Nc1sc2c(c1C#N)CCC2 belongs to which category?
Reply | class C

Ask | Entry CS(=O)(=O)c1nccc(-c2c(-c3ccc(F)c(OCc4ccc(F)cc4)c3)nc3sccn23)n1 belongs to which category?
Reply | class C

Ask | Entry O=C(O)c1ccc(-n2cc(CNc3ccc(F)cc3)c(-c3ccc(C(F)(F)F)cc3)n2)cc1 belongs to which category?
Reply | class C

Ask | Entry CCCCCCNC(=O)Oc1ccc(/C(=C(\C)c2ccc(OC)cc2)c2ccc(OCCN(C)C)cc2)cc1 belongs to which category?
Reply | class B

Ask | Entry O=C(CCCCCCN1CC(=O)N2[C@@H](c3ccccc3)c3[nH]c4ccccc4c3C[C@H]2C1=O)NO belongs to which category?
Reply | class B

Ask | Entry O=C(c1cccc(F)c1)n1ccc2cc(NC(=S)Nc3cccnc3)ccc21 belongs to which category?
Reply | class C

Ask | Entry C/C(Cc1ccc(Cl)cc1)=C(/c1ccccc1)c1ccc(OCCN)cc1 belongs to which category?
Reply | class C

Ask | Entry Cc1[nH]nc2ccc(-c3nc4cnc(N5CCN(C)CC5)cn4c3Nc3ccc(F)cc3Br)cc12 belongs to which category?
Reply | class B

Ask | Entry O=[N+]([O-])c1ccc(-c2nnc(SCc3ccc(O)c4ncccc34)o2)cc1 belongs to which category?
Reply | class A

Ask | Entry O=C(NNc1nc2cc(F)ccc2n2cncc12)c1cnccn1 belongs to which category?
Reply | class B

Ask | Entry COCCC[C@H]1O[C@@](O)([C@H](C)[C@@H]2CC(OC)C(O)/C=C(C)/C=C(C)/C=C(\C)C(OC3O[C@@H](C)[C@H](O)C(O)[C@@H]3O)C(C)/C=C(C)/C=C(OC)/C=C(\C)C(=O)O2)C(OC)C(O)[C@]1(C)O[C@H]1C[C@@H](O)[C@H](O[C@H]2C[C@](C)(O)[C@H](O)C(C)O2)C(C)O1 (stereo partly specified) belongs to which category?
Reply | class B

Ask | Entry CCOC(=O)C1=C(C)Nc2nc3ccccc3n2C1c1cccc(Br)c1 (stereo unspecified) belongs to which category?
Reply | class B

Ask | Entry O=[N+]([O-])c1ccc(-c2nnc(SCc3ccc(O)c4ncccc34)n2-c2ccccc2)cc1 belongs to which category?
Reply | class A

Ask | Entry COc1cccc(/C=C/C(=O)c2ccc(NC(=O)COc3cccc4cccnc34)cc2)c1 belongs to which category?
Reply | class C

Ask | Entry Nc1nc(-c2cccc([N+](=O)[O-])c2)c(N=Nc2ccccc2[N+](=O)[O-])s1 belongs to which category?
Reply | class A

Ask | Entry C#C[C@]1(O)CC[C@H]2[C@@H]3CC=C4c5sc(-c6ccccn6)nc5CC[C@]4(C)[C@H]3CC[C@@]21C belongs to which category?
Reply | class B
